- system: HIV protease (Human immunodeficiency virus type 1 group M subtype B)
- Construct: purified HIV protease
- assay.notes: biochemical
- run.conditions: 200 μg/ml; purified HIV protease, synthetic peptide substrate, RP-HPLC; read-out: % Inhibition at 200 μg/ml
metric: inhibition at 200 µg/mL (%)
Please state the figure in %; there is no need to write the unit.

Some solved cases for reference:
COc1cccc2c1OC(C(=O)N1CCC(NC(=O)Nc3ccccc3)CC1)CC2 (stereo not shown) [Example 1]; 99
O=C(C1CCc2ccccc2O1)N1CCC(n2c(=O)[nH]c3ccccc32)CC1 (stereo not shown) [Example 21]; 65
COc1cccc2c1O[C@H](C(=O)N1CCC(n3c(=O)[nH]c4ccccc43)CC1)CC2 [Example 25]; 74

Ask | Write down the reported inhibition at 200 µg/mL (system: HIV protease (Human immunodeficiency virus type 1 group M subtype B)) of COc1cccc2c1OC(C(=O)N1CCC(n3c(=O)[nH]c4ccccc43)CC1)CC2 (stereo not shown) [Example 24]
Reply | 99

---

- system: HIV protease (Human immunodeficiency virus type 1 group M subtype B)
metric: IC50 (nM)
Please state the figure in nM; there is no need to write the unit.

Ask | Write down the reported IC50 (system: HIV protease (Human immunodeficiency virus type 1 group M subtype B)) of COc1cccc2c1OC(CN1CCC(n3c(=O)[nH]c4ccccc43)CC1)CC2 (stereo not shown) [Example 30]
Reply | 0.2

---

- system: HIV protease (Human immunodeficiency virus type 1 group M subtype B)
- Construct: purified HIV protease
- assay.notes: biochemical
- run.conditions: read-out: % Inhibition at 200 μg/ml
metric: inhibition at 200 µg/mL (%)
Please state the figure in %; there is no need to write the unit.

COc1cccc2c1OC(CN1CCC(n3c(=O)[nH]c4ccccc43)CC1)CC2 (stereo not shown) [Example 30]; 99
O=c1[nH]c2ccccc2n1C1CCN(C[C@@H]2CCc3ccccc3O2)CC1 [Example 28]; 94
O=c1[nH]c2ccccc2n1C1CCN(CC2CCc3cccc(O)c3O2)CC1 (racemic) [Example 33]; 99

Ask | Quickly give me recorded inhibition at 200 µg/mL for O=c1[nH]c2ccccc2n1C1CCN(CC2CCc3ccccc3O2)CC1 (stereo not shown) [Example 27]
Reply | 81
